Tested on: 621-102 (TSC2-deficient)
assay_name: relative viability vs DMSO; higher = less cytotoxic
recorded_conditions: 10 µM; serum: 10% FBS; 72 h
Threshold 60%. relative viability below it: 1.0. relative viability at it or above: 0.0.

Q: Confirm or reject: relative viability of N=C(N)NC(=N)N1CCOCC1 [Moroxydine] lies strictly below 60%
Ans: 0.0

Q: Quick check: relative viability of CC[C@@H]1C(=O)N(C)c2cnc(Nc3ccc(C(=O)NC4CCN(C)CC4)cc3OC)nc2N1C1CCCC1 [BI 2536] under 60%?
Ans: 1.0

Q: Input O=C(c1ccc(F)cc1)C1CCN(CCn2c(=O)[nH]c3ccccc3c2=O)CC1 [Ketanserin (Vulketan Gel)] ; condition: relative viability strictly below 60%. Does it hold?
Ans: 0.0

Q: Strictly below 60%: is that where relative viability of C#Cc1cccc(Nc2ncnc3cc(OC)c(OCCCCCCC(=O)NO)cc23)c1 [CUDC-101] sits?
Ans: 1.0

Q: I'd appreciate it if you could check whether CC(C)OC(=O)C1=CN(C(=O)c2ccc(F)c(F)c2)CC(C)(C)c2c1[nH]c1ccccc21 has relative viability smaller than 60%.
Ans: 0.0

Q: Say whether its relative viability is strictly beneath 60%. Entry: CC(=O)O[C@H]1CC[C@@]2(C)C(=CC[C@@H]3[C@@H]2CC[C@]2(C)C(c4cccnc4)=CC[C@@H]32)C1 [Abiraterone Acetate (CB7630)]
Ans: 0.0

====

Test system: 621-103 (TSC2-rescued)
assay_name: relative viability vs DMSO; higher = less cytotoxic
recorded_conditions: 0.01 µM; serum: 10% FBS; 72 h
Counter-ions that a name gives are not always drawn.
quantity_kind: relative viability (%)
Numbers only here, please. The scale is %.

# annotated cases, reported relative viability shown
- molecule: "CN(C)CCCN1c2ccccc2Sc2ccc(Cl)cc21 [Chlorpromazine HCl]"
  recorded_value: 95.7
- molecule: "COc1cc2c(Nc3ccc(NC(=O)c4ccccc4)cc3)ncnc2cc1OCCCN1CCOCC1"
  recorded_value: 104
- molecule: "COc1cc2ncnc(-n3nc(-c4ccccn4)nc3N)c2cc1OC"
  recorded_value: 109
- molecule: "Cc1c(NC(=O)OC[C@@H]2COCCN2)cn2ncnc(Nc3ccc4c(cnn4Cc4cccc(F)c4)c3)c12"
  recorded_value: 102

Alright, here's another molecule for you.
Q: Suppose we examine the molecule Cc1[nH]c(=O)c(C#N)cc1-c1ccncc1 ; what relative viability value has been reported?
Ans: 95.5

====

Test system: 621-102 (TSC2-deficient)
assay_name: relative viability vs DMSO (fraction); higher = less cytotoxic
recorded_conditions: 1000 nM; serum: 0.1% FBS; 72 h
So basically: is relative viability under 0.1? Then T. Not under? Then F.

- smiles_record: "CO[C@H]1C[C@@H]2CC[C@@H](C)[C@@](O)(O2)C(=O)C(=O)N2CCCC[C@H]2C(=O)O[C@H]([C@H](C)C[C@@H]2CC[C@@H](OC(=O)C(C)(CO)CO)[C@H](OC)C2)CC(=O)[C@H](C)/C=C(\\C)[C@@H](O)[C@@H](OC)C(=O)[C@H](C)C[C@H](C)/C=C/C=C/C=C/1C"
  label: "F"
- smiles_record: "CC(C)C[C@@H](C(=O)N[C@H](C(=O)OC1CCCC1)c1ccccc1)[C@H](O)C(=O)NO"
  label: "F"
- smiles_record: "CC(C)C[C@H](NC(=O)[C@H](Cc1ccccc1)NC(=O)c1cnccn1)B(O)O"
  label: "T"
- smiles_record: "CC(C)c1cc(C(C)C)c(CC(=O)NS(=O)(=O)Oc2c(C(C)C)cccc2C(C)C)c(C(C)C)c1"
  label: "F"

Q: Dear colleague, could you confirm whether relative viability of Cc1ccc(C(=O)Nc2cccc(C(F)(F)F)c2)cc1Nc1nc(-c2cccnc2)nc2c1cnn2C falls below 0.1? Thanks.
Ans: F

Q: State whether 0.1 exceeds relative viability recorded for CC1=NN(c2ccc(C)c(C)c2)C(=O)/C1=N\Nc1cccc(-c2cccc(C(=O)O)c2)c1O .
Ans: T

====

Test system: 621-103 (TSC2-rescued)
assay_name: relative viability vs DMSO; higher = less cytotoxic
recorded_conditions: 0.1 µM; serum: 10% FBS; 72 h
Where a name gives a salt, the structure may show the parent alone.
quantity_kind: relative viability (%)
Expressed in %, but write only the number.

// solved cases for relative viability follow
- compound: "CC[C@]12C=CCN3CC[C@@]4(c5cc([C@@]6(C(=O)OC)C[C@@H]7C[C@@H](C(C)(F)F)CN(Cc8c6[nH]c6ccccc86)C7)c(OC)cc5N(C)[C@H]4[C@@](O)(C(=O)OC)[C@@H]1OC(C)=O)[C@@H]32 [Vinflunine Tartrate]"
  relative viability [%]: 34.9
- compound: "CO[C@@H]1[C@@H](OC(N)=O)[C@@H](O)[C@H](Oc2ccc3c(O)c(NC(=O)c4ccc(O)c(CC=C(C)C)c4)c(=O)oc3c2C)OC1(C)C [Novobiocin sodium (Albamycin)]"
  relative viability [%]: 98.6

Let us move to another entry and its relative viability.
Q: Query (compound): Oc1c2ccccc2c2c3c(cccc13)N=N2 ; field requested: relative viability
Ans: 100

====

Tested on: 621-103 (TSC2-rescued)
assay_name: relative viability vs DMSO; higher = less cytotoxic
recorded_conditions: 0.1 µM; serum: 10% FBS; 72 h
Structures can show the parent of a compound that is named as a salt.
quantity_kind: relative viability
Answer format: number, then unit.

- compound: "CC[C@@]1(O)C(=O)OCc2c1cc1n(c2=O)Cc2cc3ccccc3nc2-1 [Camptothecine]"
  relative viability: "44.6%"
- compound: "CC(C)[C@H](C(=O)Nc1ccc(C(=O)NO)cc1)c1ccccc1 [AR-42 (HDAC-42)]"
  relative viability: "83.4%"
- compound: "O=c1[nH]c2ccccc2n1CCCN1CCC(n2c(=O)[nH]c3cc(Cl)ccc32)CC1 [Domperidone (Motilium)]"
  relative viability: "110%"
- compound: "O=c1cc(N2CCOCC2)oc2c(-c3cccc4c3sc3ccccc34)cccc12 [NU7441]"
  relative viability: "103%"
- compound: "COC(=O)[C@@H]1[C@H]2C[C@H]3c4[nH]c5ccccc5c4CCN3C[C@@H]2CC[C@@H]1O [Yohimbine HCl]"
  relative viability: "97%"
- compound: "COc1cc(Nc2ncc(F)c(Nc3ccc4c(n3)NC(=O)C(C)(C)O4)n2)cc(OC)c1OC [R406 (free base)]"
  relative viability: "99.5%"
- compound: "Cc1ccc(NC(=O)c2ccc(CN3CCN(C)CC3)cc2)cc1Nc1nccc(-c2cccnc2)n1 [Imatinib (STI571)]"
  relative viability: "101%"

Q: So what relative viability did CCCc1nc(C)c2c(=O)nc(-c3cc(S(=O)(=O)N4CCN(CC)CC4)ccc3OCC)[nH]n12 [Vardenafil (Vivanza)] get with 621-103 (TSC2-rescued)?
Ans: 104%

====

Tested on: 621-103 (TSC2-rescued)
assay_name: relative viability vs DMSO; higher = less cytotoxic
recorded_conditions: 1 µM; serum: 10% FBS; 72 h
Structures can show the parent of a compound that is named as a salt.
// classify: if (relative viability < 90%) criterion met else criterion not met

The following compounds have reported results that may help.
- compound: "COC(=O)C1=C(C)NC(C)=C(C(=O)OCC(C)C)C1c1ccccc1[N+](=O)[O-] (stereo not drawn) [Nisoldipine]"
  label: "criterion not met"
- compound: "Nc1nc(Cl)nc2c1ncn2[C@H]1C[C@H](O)[C@@H](CO)O1 [Cladribine]"
  label: "criterion met"
- compound: "CNC(=O)c1ccc(C)c(-n2c(C)cc(OCc3ccc(F)cc3F)c(Br)c2=O)c1"
  label: "criterion not met"
- compound: "Cn1cnc2c(F)c(Nc3ccc(Br)cc3Cl)c(C(=O)NOCCO)cc21 [AZD6244 (Selumetinib)]"
  label: "criterion not met"
- compound: "C[C@@H](Oc1cc(-n2cnc3ccc(CN4CCN(C)CC4)cc32)sc1C(N)=O)c1ccccc1C(F)(F)F"
  label: "criterion met"

Q: Is relative viability strictly under 90% for the entry Nc1ncnc2c1c(-c1cnc3[nH]ccc3c1)nn2C1CCCC1 [PP-121] ?
Ans: criterion met

Q: I wonder whether CNC[C@H](O)c1ccc(O)c(O)c1 [Epinephrine bitartrate] has relative viability below 90%. Can you tell?
Ans: criterion not met

Q: Dear colleague, could you confirm whether relative viability of NCCc1ccc(O)c(O)c1 [Dopamine HCl] falls below 90%? Thanks.
Ans: criterion not met

====

Tested on: 621-102 (TSC2-deficient)
assay_name: relative viability vs DMSO; higher = less cytotoxic
recorded_conditions: 0.001 µM; serum: 10% FBS; 72 h
Structures can show the parent of a compound that is named as a salt.
# relative viability listing for each entry below
Dear colleague, please return just the value in %, with no unit written.

Here's what some known entries look like.
- compound: "COc1cc2c(cc1OC)C(=O)C(CC1CCN(Cc3ccccc3)CC1)C2 (configuration not stated) [Donepezil HCl]"
  unit_annotation: "%"
  recorded_value: 108
- compound: "CCOc1ccn(-c2ccc(F)cc2)c(=O)c1C(=O)Nc1ccc(Oc2ccnc(N)c2Cl)c(F)c1"
  unit_annotation: "%"
  recorded_value: 102
- compound: "C#Cc1cccc(Nc2ncnc3cc(OC)c(OCCCCCCC(=O)NO)cc23)c1 [CUDC-101]"
  unit_annotation: "%"
  recorded_value: 108
- compound: "CN(C)CCCN1c2ccccc2Sc2ccc(Cl)cc21 [Chlorpromazine HCl]"
  unit_annotation: "%"
  recorded_value: 87.9
- compound: "C/C(=C\\c1csc(C)n1)[C@@H]1C[C@@H]2O[C@@H]2CCC[C@H](C)[C@H](O)[C@@H](C)C(=O)C(C)(C)[C@@H](O)CC(=O)O1 [Epothilone A]"
  unit_annotation: "%"
  recorded_value: 47

Q: I'm curious: which relative viability was measured for CCc1c2c(nc3ccc(OC(=O)N4CCC(N5CCCCC5)CC4)cc13)-c1cc3c(c(=O)n1C2)COC(=O)[C@]3(O)CC [Irinotecan HCl Trihydrate] tested on 621-102 (TSC2-deficient)?
Ans: 98.4

Q: Hello, I am looking for reported relative viability with 621-102 (TSC2-deficient) for CC(=O)SCC(Cc1ccccc1)C(=O)NCC(=O)OCc1ccccc1 (configuration not stated) [Racecadotril] . Could you help?
Ans: 120

Q: # get_value(readout= relative viability, system= 621-102 (TSC2-deficient)) for COC(=O)[C@@H]1[C@H]2C[C@H]3c4[nH]c5ccccc5c4CCN3C[C@@H]2CC[C@@H]1O [Yohimbine HCl]
Ans: 104

Q: What reported relative viability corresponds to NC(=O)Nc1cc(-c2cccc(F)c2)sc1C(=O)N[C@H]1CCCNC1 [AZD7762] on 621-102 (TSC2-deficient)?
Ans: 108

Q: Give relative viability (621-102 (TSC2-deficient)) of the following compound: CCCCCCCCCCCCCCCC(=O)OC[C@H](O)[C@H]1OC(=O)C(O)=C1O [L-Ascorbyl 6-palmitate]
Ans: 111

Q: Notebook entry, 621-102 (TSC2-deficient) assay: relative viability of CC1=C(C(=O)Nc2cc3cn[nH]c3cc2F)C(c2ccc(C(F)(F)F)cc2)CC(=O)N1 (configuration not stated) = ?
Ans: 104

meta.source: the supplement of paper PMC8960247
